Target: PSMA on PSMA-positive LNCaP (clone FGC) and C4-2 cells
Test: cell-based or functional assay
Reported IC50 (nM), anti-proliferative effect on C4-2 cells (CellTiter Glo viability) is given for each of the following binders.
Write the value in nM as a bare number.

Some solved entries appear below for comparison.
query: Which IC50 (nM), anti-proliferative effect on C4-2 cells (CellTiter Glo viability) is listed for AB-09-mc-val-cit-PAB-MMAE (antibody, IgG1, V domains shown, mc-val-cit-PAB-MMAE (maleimide reagent) conjugated after TCEP reduction; average DAR 3.5 (±0.2); attachment residues not given) VH: QVQLVESGGGVVQPGRSLRLSCAASGFTFSNYVMHWVRQAPGKGLEWVAIIWYDGSNKYYADSVKGRFTISRDNSKNTLYLQMNSLRAEDTAVYYCAGGYNWNYEYHYYGMDVWGQGTTVTVSS VL: DIQMTQSPSSLSASVGDRVTITCRASQGITNYLAWFQQKPGKAPKSLIYAASSLQSGVPSKFSGSGSGTDFSLTISSLQPEDFATYYCQQYNSYPITFGQGTRLEIK ?
result: 0.24

query: Which IC50 (nM), anti-proliferative effect on C4-2 cells (CellTiter Glo viability) is listed for AB-08-mc-val-cit-PAB-MMAE (antibody, V domains shown, mc-val-cit-PAB-MMAE (maleimide reagent) conjugated after TCEP reduction; average DAR 3.5 (±0.2); attachment residues not given) VH: QVQLVESGGGVVQPGRSLRLSCAASGFAFSRYGMHWVRQAPGKGLEWVAVIWYDGSNKYYADSVKGRFTISRDNSKNTQYLQMNSLRAEDTAVYYCARGGDFLYYYYYGMDVWGQGTTVTVSS VL: DIQMTQSPSSLSASVGDRVTITCRASQGISNYLAWYQQKTGKVPKFLIYEASTLQSGVPSRFSGGGSGTDFTLTISSLQPEDVATYYCQNYNSAPFTFGPGTKVDIK ?
result: 0.31

query: Which IC50 (nM), anti-proliferative effect on C4-2 cells (CellTiter Glo viability) is listed for AB-05-mc-val-cit-PAB-MMAE (antibody, human IgG1, V domains shown, mc-val-cit-PAB-MMAE (maleimide reagent) conjugated after TCEP reduction; average DAR 3.5 (±0.2); attachment residues not given) VH: EVQLVQSGAEVKKPGASVKVSCKASGYTFTEYTIHWVRQAPGKGLEWIGNINPNNGGTTYNQKFEDRVTITVDKSTSTAYMELSSLRSEDTAVYYCAAYWLFDYWGQGTTVTVSS VL: DIQMTQSPSTLSASVGDRVTITCKASQDVGTAVDWYQQKPGQAPKLLIYWASTRHTGVPDRFSGSGSGTDFTLTISRLQPEDFAVYYCQQYNAYSLTFGQGTKVDIK ?
result: 0.41

New cases:
query: Which IC50 (nM), anti-proliferative effect on C4-2 cells (CellTiter Glo viability) is listed for AB-03-mc-val-cit-PAB-MMAE (antibody, human IgG1, V domains shown, mc-val-cit-PAB-MMAE (maleimide reagent) conjugated after TCEP reduction; average DAR 3.5 (±0.2); attachment residues not given) VH: EVQLVQSGAEVKKPGASVKVSCKASGYTFTEYTIHWVRQAPGKGLEWIGNINPNNGGTTYNQKFEDRVTITVDKSTSTAYMELSSLRSEDTAVYYCAGGWTFDYWGQGTTVTVSS VL: DIQMTQSPSTLSASVGDRVTITCKASQDVGTAVDWYQQKPGQAPKLLIYWASTRHTGVPDRFSGSGSGTDFTLTISRLQPEDFAVYYCQQFTRYPLTFGQGTKVDIK ?
result: 0.22

query: Which IC50 (nM), anti-proliferative effect on C4-2 cells (CellTiter Glo viability) is listed for AB-02-mc-val-cit-PAB-MMAE (antibody, human IgG1, V domains shown, mc-val-cit-PAB-MMAE (maleimide reagent) conjugated after TCEP reduction; average DAR 3.5 (±0.2); attachment residues not given) VH: EVQLVQSGAEVKKPGASVKVSCKASGYTFTEYTIHWVRQAPGKGLEWIGNINPNNGGTTYNQKFEDRVTITVDKSTSTAYMELSSLRSEDTAVYYCAAYWLFDYWGQGTTVTVSS VL: DIQMTQSPSTLSASVGDRVTITCKASQDVGTAVDWYQQKPGQAPKLLIYWASTRHTGVPDRFSGSGSGTDFTLTISRLQPEDFAVYYCQQYNSYPLTFGQGTKVDIK ?
result: 0.18

query: Which IC50 (nM), anti-proliferative effect on C4-2 cells (CellTiter Glo viability) is listed for AB-04-mc-val-cit-PAB-MMAE (antibody, human IgG1, V domains shown, mc-val-cit-PAB-MMAE (maleimide reagent) conjugated after TCEP reduction; average DAR 3.5 (±0.2); attachment residues not given) VH: EVQLVQSGAEVKKPGASVKVSCKASGYTFTEYTIHWVRQAPGKGLEWIGNINPNNGGTTYNQKFEDRVTITVDKSTSTAYMELSSLRSEDTAVYYCAGAWTMDYWGQGTTVTVSS VL: DIQMTQSPSTLSASVGDRVTITCKASQDVGTAVDWYQQKPGQAPKLLIYWASTRHTGVPDRFSGSGSGTDFTLTISRLQPEDFAVYYCQQFTRYPLTFGQGTKVDIK ?
result: 0.21
